- Run description: Toxicity of test compound to uninfected CEM cell line (growth inhibition)
- Format: cell-based, human
- Run parameters: human, cem cells; 5.45 × 10^-6 Molar; read-out: UNINFECTED CULTURE Response (%)
Outcome measure: viability at 168 h, 5.45 µM

Reported viability at 168 h, 5.45 µM ( COC(=O)c1cc(NC(=O)C2=C(C)OCCS2)ccc1Cl [Compound 3] ) = 108%

----------
Can you tell me pEC50 for the items I'm about to list?
- Test system: HIV
- Run description: Reduction of HIV cytopathic effect, CEMC (CEM cells, virus previously cultured with host cells)
- Format: cell-based
- Run parameters: Human immunodeficiency virus 1, CCRF-CEM, read-out: Activity of Anti-HIV Compounds (EC50), CEMC
# pEC50 = -log10(concentration in molar units)

Reported pEC50 ( CC1=C(C(=O)Nc2ccc(Cl)cc2)SCCS1 ) = 4.45

Reported pEC50 ( CC1=C(C(=O)Nc2cc(C(=O)OC(C)C)c(Cl)cc2F)SCCO1 ) = 5.46

----------
- Tested on: HIV
- Run description: Reduction of HIV cytopathic effect, CEMZ (CEM line with sub-effective amount of AZT)
- Type: cell-based
- Run parameters: Human immunodeficiency virus 1, CCRF-CEM, CEM cells, read-out: Activity of Anti-HIV Compounds (EC50), CEMZ
Outcome measure: EC50

Reported EC50 ( Cc1ccoc1C(=O)Nc1ccc(Cl)c(C(=O)OC(C)C)c1 ) = 7900 nM

Reported EC50 ( Cc1ccccc1C(=O)Nc1ccc(Cl)c(C(=O)OC(C)C)c1 ) = 1100 nM

Reported EC50 ( Cc1oc(C)c(C(=O)Nc2ccc(Cl)c(C(=O)OC(C)C)c2)c1C ) = 900 nM

Reported EC50 ( CC1=C(C(=O)Nc2cc(C(=O)OC(C)C)c(Cl)cc2F)SCCO1 ) = 1800 nM

Reported EC50 ( CCCOC(=O)c1cc(NC(=O)c2ccccc2C)ccc1Cl ) = 12000 nM

----------
- Run description: Toxicity of test compound to uninfected CEM cell line (growth inhibition)
- Format: cell-based, human
- Run parameters: human, cem cells; 1.72 × 10^-4 Molar; read-out: UNINFECTED CULTURE Response (%)
Outcome measure: viability at 168 h, 172 µM (%)
# number only, unit % dropped from output

Reported viability at 168 h, 172 µM ( COC(=O)c1cc(NC(=O)C2=C(C)OCCS2)ccc1Cl ) = 10.1

----------
- System: HIV
- Run description: Reduction of HIV cytopathic effect, CEM-6 (CEMV test, six days)
- Type: cell-based
- Run parameters: CEM cells, free HIV, read-out: Activity of Anti-HIV Compounds (EC50), CEM-6
Can you tell me EC50 for the items I'm about to list?
# number only, unit µM dropped from output

Reported EC50 ( CCOC(=O)c1cc(NC(=O)c2ccccc2OC)ccc1Cl [Compound 86] ) = 1.36

Reported EC50 ( CC(C)OC(=O)c1cc(NC(=S)OC2CCCCC2)ccc1Cl [Compound 44] ) = 1.34

Reported EC50 ( CCCOC(=O)c1ccc(C)c(NC(=O)C2=C(C)OCCS2)c1 [Compound 75] ) = 0.908
